# Tested on: UACC-62 melanoma
# Assay notes: NCI-60 one-dose screen, 48 h (100 = growth as untreated, 0 = no growth, -100 = all killed)
# Recorded conditions: 10 µM unless noted
# Protocol: Growth inhibition of the UACC-62 human tumor cell line is measured as a screen for anti-cancer activity. Cells are grown in 96 well plates and exposed to the test compound for 48 hours. Compounds are tested at a single concentration, which is 10^-5 M for most compounds. The reported endpoint is percent growth (GI% or GIPRCNT), where numbers from 0 - 100% represent growth inhibition, and numbers from -100% - 0 represent cell death. For example, a value of 40 represents 60% growth inhibition. […]
This is part of a sample that, as a whole, favours compounds with a hit. Of some 83,000 tested, about 20% had one in any assay.
Give growth for every item shown.
Numbers only, in %.

These solved cases illustrate the format of a correct answer.
Molecule | Test target | growth [%]
O=C(O)c1ccccc1NCc1ccco1 | UACC-62 melanoma | 101
OC1CCCc2ccccc21 (stereo not drawn) | UACC-62 melanoma | 100
CCOC(=O)C(C#N)Cc1ccccc1 (stereo not drawn) | UACC-62 melanoma | 111

Please go through the list and note growth for each molecule.
1. COc1cc(C(N)=O)cc(OC)c1OC
2. CC1CCC(C(=O)O)N1 (stereo not drawn)
3. CC(=Nc1ccccc1)C1=C(O)C(Cc2cccc(F)c2)NC1=O (stereo not drawn)
4. Nc1nc(N)c(N=Nc2ccc(C(=O)O)cc2)c(N)n1

[94.2, 98.1, 32.9, 94.4]

Please go through the list and note growth for each molecule.
1. CC(O)COc1ccc(-c2ccccc2)cc1 (stereo not drawn)
2. O=C(Cc1ccccc1)Cc1ccccc1
3. O/N=C/c1ccc(O)cc1O
4. N#C/C(=C\c1cc(O)c(O)c(O)c1)C(N)=O
5. S=c1nn[nH]c2ccccc12
6. NC(C(=O)O)c1ccc([N+](=O)[O-])cc1 (stereo not drawn)
7. Oc1ccccc1-c1nnco1
8. COC(=O)CCCCC1=CCC2C(=O)C=C(O)C2C1 (stereo not drawn)

1. 92.4
2. 97
3. 96.5
4. 98.1
5. 99.2
6. 97.3
7. 89.9
8. 103

Please go through the list and note growth for each molecule.
1. COC(=O)c1ccccc1N(C)C
2. CCCOC(=O)C(O)c1ccccc1 (stereo not drawn)
3. COc1cc2c(cc1O)CC[C@@H]1C2CC[C@@]2(C)C1CC[C@@H]2O (stereo partly drawn)

1: 105; 2: 98.2; 3: 22.2

Please go through the list and note growth for each molecule.
1. O=C(NC1CCCCC1)OCc1c(COC(=O)NC2CCCCC2)c(-c2ccc(Cl)c(Cl)c2)n2c1CCC2
2. CCOC(=O)c1ccc(NC(=S)P(=O)(c2ccccc2)c2ccccc2)cc1
3. OCc1ccc(-c2ccc(-c3ccc(CO)s3)o2)s1

[9.04, 99.4, -35]

====

Give growth for every item shown.
# System: LOX IMVI melanoma
# Assay notes: NCI-60 one-dose screen, 48 h (100 = growth as untreated, 0 = no growth, -100 = all killed)
# Recorded conditions: 10 µM
The panel holds about 83,000 compounds, 20% with a hit somewhere; the sample as a whole holds those more often.
Numbers only, in %.

These solved cases illustrate the format of a correct answer.
Compound | Test target | Obs value
[O-][N+](=Nc1cccc(Cl)c1)c1cccc(Cl)c1 | LOX IMVI melanoma | 97.4
O=C1C=CC2=C3c4cc(O)c(O)cc4CC3(O)COC2=C1O (configuration not stated) | LOX IMVI melanoma | 99.2
CCOC(=O)Nc1nn[nH]n1 | LOX IMVI melanoma | 92.9
OCCN(CCO)C(=S)S | LOX IMVI melanoma | 107
CC(C)C(C#N)(C(C)C)C(C)C | LOX IMVI melanoma | 112

Please go through the list and note growth for each compound.
1. O=C(NN=C1CCCCC1)C(=O)NN=C1CCCCC1
2. Nc1ncnc2c1nc(N)n2C1OC(CO)C(O)C1O (configuration not stated)

1: 113; 2: -80.3
